Source listed as paper PMC10397247.

- System: T1, AP5-AA
- T1 chain: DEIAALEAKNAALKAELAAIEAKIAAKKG
- Experimental protocol: two-hybrid library CCmax;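 also: natural log of median RNA to DNA barcode read ratio; higher means stronger binding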
Observation type: interaction score

Use these answered entries as a reference point.
KRLKQLRKRKQAKRWEEAQIEKELQAIEK [4H_APH2]
-1.71
KRAKQLRKRLQALEWQLAQIRKELQAAEK [4H_APH3]
-0.968

(1) DEIAALEAKNAALKAELAAIEAKIAAKKG [AP5-AA]
(2) KRLKQIEKRLQAKEWEKAQLRKELQALRK [4H_APH4]
Query :: Of 1 and 2 , whose reported interaction score is the larger number? Bench note: the answer is the label of the chosen record.
Result :: 1
(1: -0.918, 2: -1.61)
